Assay: NCI Yeast Anticancer Drug Screen. Data for the sgs1 mgt1 strain (AID 161);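 note: 0% = growth of cultures given vehicle only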
Details: S. cerevisiae sgs1 mgt1 strain, at 50.0 µM, hits give high values
The panel holds about 79,000 compounds, 15% with a hit somewhere; the sample as a whole holds those more often.
MEASURE NAME: growth inhibition (%)
One number for each entry, in %.

COMPOUND	growth inhibition, %
CC(=O)NC(CSCC(=O)c1ccccc1)C(=O)O (stereo not given)	-10.3
CCCOC(=O)/C(C)=C\c1ccccc1	17.6
CC(=O)O[C@]12CCCCCC1C1(O)C(O)CCC[C@H]12 (stereo not given in full)	-54.8
O=C([CH-]C(=O)C(F)(F)F)c1ccccc1.O=C([CH-]C(=O)C(F)(F)F)c1ccccc1.O=C([CH-]C(=O)C(F)(F)F)c1ccccc1.[Ru+3]	-11.5
CC1=CC(=O)C(=Ic2ccccc2)C(=O)O1	4.6

Below are some compounds; for each one, tell me its growth inhibition.
1. O=[N+]([O-])c1ccc(-c2cc3ccccn3c2)cc1
2. Cc1ccc2c(c1)C1(OC(=O)c3ccccc31)c1ccc(F)cc1O2 (stereo not given)

-9.7
36.9

Below are some compounds; for each one, tell me its growth inhibition.
1. Cc1ccc(S(=O)(=O)OC2=C/C(=N\c3onc(C)c3C)c3ccccc3C2=O)cc1
2. Nc1ncc(Cl)cn1
3. ClC1=C(Cl)C2(Cl)C3C(c4ccc(I)cc4C4C3C3(Cl)C(Cl)=C(Cl)C4(Cl)C3(Cl)Cl)C1(Cl)C2(Cl)Cl (stereo not given)

1: -27.9; 2: 8; 3: 8.8
